# System: SKBR3 (PI3Kα-Wild Type) cell line
# Procedure Summary: HTRF phospho-AKT(S473) cell assay in SKBR3 cells
# Format: cell-based, human
# Setup Conditions: Homo sapiens, SK-BR-3; HTRF phospho-AKT(S473), SKBR3 (PI3Kα-Wild Type) cells, 2 hours compound incubation, PDGF-BB stimulated
Entries annotated with measured IC50
Value Type: IC50

- Compound: "Cc1cc([C@@H](C)Nc2ccc(Cl)nc2C(=O)NS(C)(=O)=O)c2nc(N3CCC(c4cc(C)[nH]n4)CC3)n(C)c(=O)c2c1 [Compound 715]"
  Result: "1 to 5 µM"
- Compound: "CC(=O)N1CCC(c2ccc(-c3nc4c([C@@H](C)Nc5ccc(Cl)nc5C(=O)NS(C)(=O)=O)cc(C)cc4c(=O)n3C)cc2F)CC1 [Compound 786]"
  Result: "1 to 5 µM"
- Compound: "Cc1cc([C@@H](C)Nc2ccc(Cl)nc2C(=O)NS(C)(=O)=O)c2nc(-c3ccccc3)n(C)c(=O)c2c1 [Compound 813]"
  Result: "≥ 5 µM"
- Compound: "CCn1c(N2CCc3nn(C)cc3C2)nc2c([C@@H](C)Nc3ccc(Cl)nc3C(=O)NS(C)(=O)=O)cc(C)cc2c1=O [Compound 546]"
  Result: "1 to 5 µM"
- Compound: "Cc1cc([C@@H](C)Nc2ccc(Cl)nc2C(=O)NS(C)(=O)=O)c2nc(N3C[C@@H]4[C@H](C3)[C@H]4c3cnc(C)nc3C)n(C)c(=O)c2c1 [Compound 578]"
  Result: "1 to 5 µM"
- Compound: "Cc1cc([C@@H](C)Nc2ccc(Cl)nc2C(=O)NS(C)(=O)=O)c2nc(N3CCC(c4ccnn4C(F)(F)F)CC3)n(C)c(=O)c2c1 [Compound 446]"
  Result: "≥ 5 µM"
- Compound: "Cc1cc([C@@H](C)Nc2ccc(Cl)nc2C(=O)NS(C)(=O)=O)c2nc(N3C[C@@H]4[C@H](C3)[C@H]4c3c(F)cnn3C3CC3)n(C)c(=O)c2c1 [Compound 570]"
  Result: "≥ 5 µM"
- Compound: "Cc1ccc(N2C[C@@H]3C[C@H]2CN3c2nc3c([C@@H](C)Nc4ccc(Cl)nc4C(=O)NS(C)(=O)=O)cc(C)cc3c(=O)n2C)nc1 [Compound 663]"
  Result: "> 5 µM"
- Compound: "Cc1cc([C@@H](C)Nc2ccc(Cl)nc2C(=O)NS(C)(=O)=O)c2nc(N3C[C@@H]4[C@H](C3)[C@H]4c3ccnn3C(F)F)n(C)c(=O)c2c1 [Compound 471]"
  Result: "1 to 5 µM"
- Compound: "Cc1cc([C@@H](C)Nc2ccc(Cl)nc2C(=O)NS(C)(=O)=O)c2nc(N3CCC[C@@H](c4nccc(C)n4)C3)n(C)c(=O)c2c1 (relative stereo) [Compound 647]"
  Result: "≥ 5 µM"
- Compound: "Cc1cc([C@@H](C)Nc2ccc(Cl)nc2C(=O)NS(C)(=O)=O)c2nc(N3CCC[C@@H](c4cnc(C)cn4)C3)n(C)c(=O)c2c1 (relative stereo) [Compound 586]"
  Result: "≥ 5 µM"
- Compound: "Cc1cc([C@@H](C)Nc2ccc(Cl)nc2C(=O)NS(C)(=O)=O)c2nc(-c3ccc4nc(C)nn4c3)n(C)c(=O)c2c1 [Compound 823]"
  Result: "≥ 5 µM"
- Compound: "Cc1cc([C@@H](C)Nc2ccc(Cl)nc2C(=O)NS(C)(=O)=O)c2nc(N3C[C@@H]4C[C@H]3CN4c3ncc(F)cn3)n(C)c(=O)c2c1 [Compound 669]"
  Result: "≥ 5 µM"
- Compound: "CC(=O)N1CCC(c2ccc(-c3nc4c([C@@H](C)Nc5ccc(Cl)nc5C(=O)NS(C)(=O)=O)cc(C)cc4c(=O)n3C)c(F)c2)CC1 [Compound 780]"
  Result: "1 to 5 µM"
- Compound: "Cc1cc([C@@H](C)Nc2ccc(Cl)nc2C(=O)NS(C)(=O)=O)c2nc(N3C[C@H]4C[C@@H]3CN4c3ccccn3)n(C)c(=O)c2c1 [Compound 603]"
  Result: "≥ 5 µM"
- Compound: "Cc1cc([C@@H](C)Nc2ccc(Cl)nc2C(=O)NS(C)(=O)=O)c2nc(N3C[C@@H]4[C@H](C3)[C@H]4n3cc(C)cn3)n(C)c(=O)c2c1 [Compound 491]"
  Result: "1 to 5 µM"
- Compound: "Cc1cc([C@@H](C)Nc2ccc(Cl)nc2C(=O)NS(C)(=O)=O)c2nc(N3CCN(c4ncccc4F)CC3)n(C)c(=O)c2c1 [Compound 662]"
  Result: "≥ 5 µM"
- Compound: "Cc1cc([C@@H](C)Nc2ccc(Cl)nc2C(=O)NS(C)(=O)=O)c2nc(N3C[C@H]4C[C@@H]3CN4c3cnc(C)nc3)n(C)c(=O)c2c1 [Compound 592]"
  Result: "≥ 5 µM"
- Compound: "Cc1cc([C@@H](C)Nc2ccc(Cl)nc2C(=O)NS(=O)(=O)c2ccc(N(C)C)nc2)c2nc(N3Cc4ccc(F)cc4C3)n(C)c(=O)c2c1 [Compound 757]"
  Result: "≥ 5 µM"
- Compound: "Cc1cc([C@@H](C)Nc2ccc(Cl)nc2C(=O)NS(C)(=O)=O)c2nc(N3CCC[C@@H](c4cnccn4)C3)n(C)c(=O)c2c1 (relative stereo) [Compound 618]"
  Result: "1 to 5 µM"
- Compound: "Cc1cc([C@@H](C)Nc2ccc(Cl)nc2C(=O)NS(C)(=O)=O)c2nc(N3CCN(c4cncc(C)n4)CC3)n(C)c(=O)c2c1 [Compound 529]"
  Result: "1 to 5 µM"
- Compound: "Cc1cc([C@@H](C)Nc2ccc(Cl)nc2C(=O)NS(C)(=O)=O)c2nc(N3C[C@@H]4C(c5ncc(Cl)cn5)[C@@H]4C3)n(C)c(=O)c2c1 (some centres unmarked) [Compound 535]"
  Result: "≥ 5 µM"
- Compound: "Cc1cc([C@@H](C)Nc2ccc(Cl)nc2C(=O)NS(C)(=O)=O)c2nc(N3C[C@@H]4[C@H](C3)[C@H]4c3nn(C4CC4)cc3F)n(C)c(=O)c2c1 [Compound 569]"
  Result: "≥ 5 µM"
